Origin of values: patent US9428456B2

Listed below: pEC50 values for each entry.
molecular target: CXCR7 (Homo sapiens (Human)); assay: PathHunter CHO-K1 CXCR7 b-arrestin assay (agonistic activity); conditions: PathHunter CHO-K1 CXCR7 b-arrestin cell line
In plain terms, pEC50 is the concentration in mol/L turned into minus its base-10 logarithm.

Please review the entries below; each comes with its answer.
Cc1cc(C)nc(C(=O)Nc2cccc(C(C)N3CCC(C(=O)NC4CCCCC4)CC3)c2)c1 (racemic): 6.99
CC(C)(C)NC(=O)C1CCN(Cc2cccc(NC(=O)c3cccc(Br)n3)c2)CC1: 9.05
C[C@H]1C[C@@H](C(=O)NC(C)(C)C)CCN1Cc1cccc(NC(=O)c2cccc(C(F)(F)F)n2)c1 (racemic): 8.40
CC(C)(C)NC(=O)C1CCN(Cc2cccc(NC(=O)c3ccc4ncsc4c3)c2)CC1: 8.52
CCC(C)(C)NC(=O)C1CCN(Cc2cccc(NC(=O)c3ncc(Cl)cc3F)c2)CC1: 9.00

Consider now this further compound.
Request: pEC50 for COc1ccc(C(=O)Nc2cccc(C(C)N3CCC(C(=O)NC4CCCCC4)CC3)c2)cc1 (stereo not shown) ?
Result: 7.60

----------
Listed below: pEC50 values for each entry.
target: CXCR7 (Homo sapiens (Human), UniProt P25106); assay: PathHunter CHO-K1 CXCR7 b-arrestin assay (agonistic activity); conditions: PathHunter CHO-K1 CXCR7 b-arrestin cell line
Sequence (P25106 whole entry): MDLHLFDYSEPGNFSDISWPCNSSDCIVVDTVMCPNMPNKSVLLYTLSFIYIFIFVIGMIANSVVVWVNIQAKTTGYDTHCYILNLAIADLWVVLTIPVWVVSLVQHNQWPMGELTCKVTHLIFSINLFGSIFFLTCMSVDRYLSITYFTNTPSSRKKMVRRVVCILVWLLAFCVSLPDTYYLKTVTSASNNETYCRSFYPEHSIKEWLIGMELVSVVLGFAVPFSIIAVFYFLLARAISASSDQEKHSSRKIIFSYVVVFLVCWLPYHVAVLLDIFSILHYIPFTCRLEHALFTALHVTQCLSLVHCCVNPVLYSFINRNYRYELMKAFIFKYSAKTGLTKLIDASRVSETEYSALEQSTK
Sequence (P32121 whole entry partner): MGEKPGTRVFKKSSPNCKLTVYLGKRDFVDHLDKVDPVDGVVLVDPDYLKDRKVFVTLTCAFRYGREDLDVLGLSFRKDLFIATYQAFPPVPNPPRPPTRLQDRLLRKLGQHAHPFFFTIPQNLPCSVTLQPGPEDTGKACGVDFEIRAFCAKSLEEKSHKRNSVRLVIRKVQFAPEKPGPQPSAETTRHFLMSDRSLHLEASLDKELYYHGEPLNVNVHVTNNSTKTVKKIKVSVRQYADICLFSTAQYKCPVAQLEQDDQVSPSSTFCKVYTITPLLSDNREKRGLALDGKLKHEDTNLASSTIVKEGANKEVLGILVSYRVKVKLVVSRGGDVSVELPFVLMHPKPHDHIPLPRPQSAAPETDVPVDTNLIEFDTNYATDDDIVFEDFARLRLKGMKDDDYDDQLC
In plain terms, pEC50 is the concentration in mol/L turned into minus its base-10 logarithm.

Please review the entries below; each comes with its answer.
CC(C)(C)NC(=O)C1CCN(Cc2cccc(NC(=O)c3ccc(C(F)(F)F)cn3)c2)CC1: 9.30
Cc1cc(C(=O)Nc2cccc(C(C)N3CCC(C(=O)NC4CCCCC4)CC3)c2)ccn1 (racemic): 7.48
O=C(Cc1ccccc1)Nc1cccc(CN2CCC(C(=O)NC3CCCCC3)CC2)c1: 8.15
Cc1ccc(CN2CCC(C(=O)NC(C)(C)C)CC2)cc1NC(=O)c1ccc(F)cc1: 8.52
Cc1ccc(F)c(C(=O)Nc2cccc(CN3CCC(C(=O)NC4CCCCC4)CC3)c2)c1: 8.22
O=C(Nc1cccc(CN2CCC(C(=O)NC3CCCC3)CC2)c1)c1cncc(Cl)c1: 9.00

Request: pEC50 for O=C(Nc1cccc(CN2CCC(C(=O)NC3CCCCC3)CC2)c1)C1CCCC1 ?
Result: 7.54

Request: pEC50 for O=C(Nc1cccc(CN2CCC(C(=O)NC3CCCCC3)CC2)c1)c1ccc(Cl)nc1 ?
Result: 8.70

----------
Listed below: EC50 values for each entry.
target: CXCR7 (Homo sapiens (Human), UniProt P25106); test: PathHunter CHO-K1 CXCR7 b-arrestin assay (agonistic activity); details: PathHunter CHO-K1 CXCR7 b-arrestin cell line
A number alone suffices; assume nM.

O=C(Nc1cccc(CN2CCC(C(=O)NC3CCCCC3)CC2)c1)c1ccc(Cl)c2c1CCO2: 5
Cc1ccccc1C(=O)Nc1cccc(CN2CCC(C(=O)NC3CCCCC3)CC2)c1: 19
O=C(Cc1ccc(Cl)cc1)Nc1cccc(CN2CCC(C(=O)NC3CCCCC3)CC2)c1: 34
COc1ccc(NC(=O)c2cncc(C)c2)cc1CN1CCC(C(=O)NC(C)(C)C)CC1: 98
O=C(Cc1ccc(F)cc1Cl)Nc1cccc(CN2CCC(C(=O)NC3CCCCC3)C2)c1 (racemic): 161

Request: EC50 for O=C(Nc1cccc(CN2CCC(C(=O)NC3CCCCC3)CC2)c1)c1cc(C(F)(F)F)cc(C(F)(F)F)c1 ?
Result: 43

Request: EC50 for COC(=O)c1cncc(C(=O)Nc2cccc(CN3CCC(C(=O)NC(C)(C)C)CC3)c2)c1 ?
Result: 34

Request: EC50 for O=C(Nc1cccc(CN2CCC(C(=O)NC3CCCCC3)CC2)c1)c1cc(C(F)(F)F)ccn1 ?
Result: 12
